Just for reference, PubChem BioAssay (NCI) is where these values come from.

test system: COLO 205 colon; assay: NCI tumour cell line growth inhibition, 48 h; in the data active means GI50 below about 0.43 µM; inactive means the rest
*1 amine or outer side, *2 acyl side, *3 side chain or, on linkers, in order; H or OH if unused. Where a SMILES comes first, the peptide text is derived from it. Bridges are numbered along the chain shown (N, C = ends). [ ]: non-standard residue; d: D form. The star is where a group is joined. ξ: configuration not given here. Phe(3,5-F2) = N[C@@H](Cc1cc(F)cc(F)c1)C(=O)O; ξThr(3S) = C[C@H](O[*:3])C(N[*:1])C(=O)[*:2]; X25 = C[C@H]1OCCN([*:1])[C@@H]1C(=O)[*:2]; Phe(3-F) = N[C@@H](Cc1cccc(F)c1)C(=O)O; Pro(4R-Me) = C[C@H]1CN[C@H](C(=O)O)C1; aThr = C[C@H](O)[C@H](N)C(=O)O; X24 = O=S(=O)(F)Oc1ccc(N*)cc1; Pip = O=C(O)[C@@H]1CCCCN1; X8 = CCc1ccc(N*)c(F)c1; CO = O=C([*:1])[*:2]
Use one of these outcomes when replying: 1 (yes) = active, 0 (no) = inactive

Below are worked cases with known answers.
1) CCc1ccc(NC(=O)N[C@@H](Cc2cccc(F)c2)C(=O)N[C@@H]2C(=O)N3CCC[C@H]3C(=O)N3CCCC[C@H]3C(=O)N[C@@H](C)C(=O)N3C[C@H](C)C[C@H]3C(=O)O[C@H]2C)c(F)c1 ({X8-CO}-[Phe(3-F)][aThr]P[Pip]A[Pro(4R-Me)]; ester 2-C) : 1 (yes)
2) C[C@@H]1C[C@H]2C(=O)O[C@@H](C)C(NC(=O)[C@H](Cc3cc(F)cc(F)c3)NC(=O)Nc3ccc(OS(=O)(=O)F)cc3)C(=O)N3CCC[C@H]3C(=O)N3CCO[C@H](C)[C@H]3C(=O)N[C@@H](CO)C(=O)N2C1 (stereo partly drawn) ({X24-CO}-[Phe(3,5-F2)][ξThr(3S)]P[X25]S[Pro(4R-Me)]; ester 2-C) : 0 (no)
3) C/C(=N/NC(N)=S)c1ccc(Nc2nc(SCC(C)C)nc(-c3ccc(F)cc3)c2C#N)cc1 : 0 (no)

Next, consider the following compound.
[in] Assay outcome for O=C(NNc1nc2cc(F)ccc2n2c(CN3CCC(O)C3)ccc12)c1cnccn1 (centres undefined) : what was it?
[out] 1 (yes)

* * *

system: KM12 colon; assay: NCI tumour cell line growth inhibition, 48 h
*1 amine or outer side, *2 acyl side, *3 side chain or, on linkers, in order; H or OH if unused. Where a SMILES comes first, the peptide text is derived from it. Bridges are numbered along the chain shown (N, C = ends). [ ]: non-standard residue; d: D form. The star is where a group is joined. ξ: configuration not given here. Phe(3,5-F2) = N[C@@H](Cc1cc(F)cc(F)c1)C(=O)O; ξThr(3S) = C[C@H](O[*:3])C(N[*:1])C(=O)[*:2]; X25 = C[C@H]1OCCN([*:1])[C@@H]1C(=O)[*:2]; Phe(3-F) = N[C@@H](Cc1cccc(F)c1)C(=O)O; Pro(4R-Me) = C[C@H]1CN[C@H](C(=O)O)C1; aThr = C[C@H](O)[C@H](N)C(=O)O; X24 = O=S(=O)(F)Oc1ccc(N*)cc1; Pip = O=C(O)[C@@H]1CCCCN1; X8 = CCc1ccc(N*)c(F)c1; CO = O=C([*:1])[*:2]
Value type: TGI

# annotated cases, reported TGI shown
1. C/C(=N/NC(N)=S)c1ccc(Nc2nc(SCC(C)C)nc(-c3ccc(F)cc3)c2C#N)cc1 : > 100 µM
2. CCc1ccc(NC(=O)N[C@@H](Cc2cccc(F)c2)C(=O)N[C@@H]2C(=O)N3CCC[C@H]3C(=O)N3CCCC[C@H]3C(=O)N[C@@H](C)C(=O)N3C[C@H](C)C[C@H]3C(=O)O[C@H]2C)c(F)c1 ({X8-CO}-[Phe(3-F)][aThr]P[Pip]A[Pro(4R-Me)]; ester 2-C) : 18 µM
3. C[C@@H]1C[C@H]2C(=O)O[C@@H](C)C(NC(=O)[C@H](Cc3cc(F)cc(F)c3)NC(=O)Nc3ccc(OS(=O)(=O)F)cc3)C(=O)N3CCC[C@H]3C(=O)N3CCO[C@H](C)[C@H]3C(=O)N[C@@H](CO)C(=O)N2C1 (stereo partly drawn) ({X24-CO}-[Phe(3,5-F2)][ξThr(3S)]P[X25]S[Pro(4R-Me)]; ester 2-C) : > 100 µM

// below: TGI requested for another molecule
Sure, the documented TGI for O=C(NNc1nc2cc(F)ccc2n2c(CN3CCC(O)C3)ccc12)c1cnccn1 (centres undefined) is > 100 µM

* * *

tested on: LOX IMVI melanoma; experiment: NCI tumour cell line growth inhibition, 48 h
*1 amine or outer side, *2 acyl side, *3 side chain or, on linkers, in order; H or OH if unused. Where a SMILES comes first, the peptide text is derived from it. Bridges are numbered along the chain shown (N, C = ends). [ ]: non-standard residue; d: D form. The star is where a group is joined. Phe(3-F) = N[C@@H](Cc1cccc(F)c1)C(=O)O; Pro(4R-Me) = C[C@H]1CN[C@H](C(=O)O)C1; aThr = C[C@H](O)[C@H](N)C(=O)O; Pip = O=C(O)[C@@H]1CCCCN1; X8 = CCc1ccc(N*)c(F)c1; CO = O=C([*:1])[*:2]
The entries below come with measured TGI values attached.
Answer in µM, number only, no unit symbol.

# annotated cases, reported TGI shown
1. C/C(=N/NC(N)=S)c1ccc(Nc2nc(SCC(C)C)nc(-c3ccc(F)cc3)c2C#N)cc1 : 10.4
2. O=C(NNc1nc2cc(F)ccc2n2c(CN3CCC(O)C3)ccc12)c1cnccn1 (centres undefined) : 6.16
3. COc1cc(OC)c(S(N)(=O)=O)cc1C(=O)/C=C/c1ccc(C)cc1 : 5.01

Turning to the following compound.
The compound identified as CCc1ccc(NC(=O)N[C@@H](Cc2cccc(F)c2)C(=O)N[C@@H]2C(=O)N3CCC[C@H]3C(=O)N3CCCC[C@H]3C(=O)N[C@@H](C)C(=O)N3C[C@H](C)C[C@H]3C(=O)O[C@H]2C)c(F)c1 ({X8-CO}-[Phe(3-F)][aThr]P[Pip]A[Pro(4R-Me)]; ester 2-C) registered its TGI at 16.2

* * *

tested on: SNB-75 CNS; experiment: NCI tumour cell line growth inhibition, 48 h; in the data active means GI50 below about 0.43 µM; inactive means the rest
*1 amine or outer side, *2 acyl side, *3 side chain or, on linkers, in order; H or OH if unused. Where a SMILES comes first, the peptide text is derived from it. Bridges are numbered along the chain shown (N, C = ends). [ ]: non-standard residue; d: D form. The star is where a group is joined. Phe(3-F) = N[C@@H](Cc1cccc(F)c1)C(=O)O; Pro(4R-Me) = C[C@H]1CN[C@H](C(=O)O)C1; aThr = C[C@H](O)[C@H](N)C(=O)O; Pip = O=C(O)[C@@H]1CCCCN1; X8 = CCc1ccc(N*)c(F)c1; CO = O=C([*:1])[*:2]
Returns: one label drawn from class 1 = active, class 0 = inactive

1) CCc1ccc(NC(=O)N[C@@H](Cc2cccc(F)c2)C(=O)N[C@@H]2C(=O)N3CCC[C@H]3C(=O)N3CCCC[C@H]3C(=O)N[C@@H](C)C(=O)N3C[C@H](C)C[C@H]3C(=O)O[C@H]2C)c(F)c1 ({X8-CO}-[Phe(3-F)][aThr]P[Pip]A[Pro(4R-Me)]; ester 2-C) : class 1
2) COc1cc(OC)c(S(N)(=O)=O)cc1C(=O)/C=C/c1ccc(C)cc1 : class 0
3) O=C(NNc1nc2cc(F)ccc2n2c(CN3CCC(O)C3)ccc12)c1cnccn1 (centres undefined) : class 0

Turning to the following compound.
[in] Fill in: this test's call for `C/C(=N/NC(N)=S)c1ccc(Nc2nc(SCC(C)C)nc(-c3ccc(F)cc3)c2C#N)cc1` is ___
[out] class 1
